targetOrSystem: D(1A) dopamine receptor (Homo sapiens) (UniProt P21728)
Sequence (P21728 whole entry, looked up): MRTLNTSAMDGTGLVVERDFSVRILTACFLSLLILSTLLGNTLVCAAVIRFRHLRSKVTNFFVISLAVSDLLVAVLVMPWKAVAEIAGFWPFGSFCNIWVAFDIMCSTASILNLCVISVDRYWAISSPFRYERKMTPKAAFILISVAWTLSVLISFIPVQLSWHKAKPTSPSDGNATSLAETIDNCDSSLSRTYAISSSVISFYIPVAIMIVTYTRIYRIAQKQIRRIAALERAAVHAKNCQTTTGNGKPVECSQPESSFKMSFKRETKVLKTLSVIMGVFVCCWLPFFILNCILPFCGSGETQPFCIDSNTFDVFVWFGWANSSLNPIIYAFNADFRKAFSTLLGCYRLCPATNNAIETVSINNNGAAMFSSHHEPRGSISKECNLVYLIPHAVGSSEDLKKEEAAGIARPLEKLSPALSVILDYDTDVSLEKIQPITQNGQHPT
testName: HTS Assay for Allosteric Agonists of the Human D1 Dopamine Receptor: Primary Screen for Potentiators (AID 488982)
experimentalParameters: HEK293 T-REx D1 inducible cells, calcium flux, kinetic fluorescence; series mostly up to 8.37 µM
Results filed as inconclusive are left out. Active and inactive are the calls of the source. The call rests on the fitted dose curve; in most records, active means well fitted activation curve with a large enough effect; inconclusive means small, poorly fitted or top-dose-only effect; inactive means no such curve, though single readings can be large or run the other way.
Write down the outcome that applies. Available outcomes: active, inactive

{"compound": "COc1ccccc1N1CCNCC1", "category": "inactive"}
{"compound": "CC[C@@H](CO)NC(=O)[C@@H]1C=C2c3cccc4[nH]cc(c34)C[C@H]2N(C)C1", "category": "inactive"}
{"compound": "NN=C(N)N", "category": "inactive"}
{"compound": "O=c1[nH]c2ccccc2n1CCCN1CCC(n2c(=O)[nH]c3cc(Cl)ccc32)CC1", "category": "inactive"}
{"compound": "C=C(C)[C@H]1Cc2c(ccc3c2O[C@@H]2COc4cc(OC)c(OC)cc4[C@@H]2C3=O)O1", "category": "inactive"}

[in] Test call, this compound: C[C@@H]1O[C@@H](O[C@H]2C[C@@H](O)[C@]3(CO)[C@H]4[C@H](O)C[C@]5(C)[C@@H](C6=CC(=O)OC6)CC[C@]5(O)[C@@H]4CC[C@]3(O)C2)[C@H](O)[C@H](O)[C@H]1O
[out] inactive

[in] Test call, this compound: CC(=O)[C@H]1CC[C@H]2[C@@H]3CC[C@H]4C[C@](C)(O)CC[C@]4(C)[C@H]3CC[C@]12C
[out] inactive

[in] Test call, this compound: CCCN1CCC[C@@H]2Cc3[nH]ncc3C[C@H]21
[out] inactive

[in] Test call, this compound: Cc1cccc(C)c1NC(=O)CN1CCCC1=O
[out] inactive

[in] Test call, this compound: CNCC(O)c1ccc(O)cc1 (configuration not stated)
[out] inactive

[in] Test call, this compound: CN1C[C@H](CNC(=O)OCc2ccccc2)C[C@@H]2c3cccc4c3c(cn4C)C[C@H]21
[out] inactive

[in] Test call, this compound: Cc1ccc(S(=O)(=O)N[C@@H](CCCCN)C(=O)CCl)cc1
[out] inactive

[in] Test call, this compound: CCC1(C2=NCCN2)Cc2ccccc2O1 (configuration not stated)
[out] active

[in] Test call, this compound: c1ccc2c(c1)OCC(C1=NCCN1)O2 (configuration not stated)
[out] inactive

[in] Test call, this compound: COc1ccc(C(CN(C)C)C2(O)CCCCC2)cc1 (configuration not stated)
[out] inactive

[in] Test call, this compound: O=C1NCN(c2ccccc2)C12CCN(CC1COc3ccccc3O1)CC2 (configuration not stated)
[out] inactive

[in] Test call, this compound: Cc1cccc(C)c1NC1=NCCCS1
[out] inactive

[in] Test call, this compound: CC(C)=CCOc1c2occc2cc2ccc(=O)oc12
[out] inactive

[in] Test call, this compound: OCCN1CCN(CCCN2c3ccccc3Sc3ccc(C(F)(F)F)cc32)CC1
[out] inactive

[in] Test call, this compound: NCC(O)c1ccc(O)cc1 (configuration not stated)
[out] inactive

[in] Test call, this compound: NCC1(CC(=O)O)CCCCC1
[out] inactive

[in] Test call, this compound: CC(O)(CS(=O)(=O)c1ccc(F)cc1)C(=O)Nc1ccc(C#N)c(C(F)(F)F)c1 (configuration not stated)
[out] inactive
